Test: ATG_TCF_b_cat_CIS: Attagene CIS-FACTORIAL HepG2 Assay for human T-Cell-Factor with beta-catenin (TCF/b-cat) (AID 2282965)
Conditions: HepG2 TCF/beta-catenin cis-reporter transcription, actives raise or lower the signal
Description: ATG_CIS is a cell-based, multiplexed-readout assay that uses HepG2, a human liver cell line, with measurements taken at 24 hours after chemical dosing in a 24-well plate.ATG_TCF_b_cat_CIS is one of 52 assay component(s) measured or calculated from the ATG_CIS assay. […] This assay endpoint, ATG_TCF_b_cat_CIS, was analyzed with bidirectional fitting relative to DMSO as the negative control and baseline of activity. […]
Calls of active or inactive are those of the source. The calls were made as follows: active = hit-call score of the fitted dose curve at least 0.9, where 1 is the maximum; inactive = score below 0.9.
Endpoint Label: AC50

These recorded examples may help you get a feel for the data.
{"Compound": "Cc1cc(Cc2cc(C)cc(C(C)(C)C)c2O)c(O)c(C(C)(C)C)c1", "Reading": "180 µM (active)"}
{"Compound": "C=COC(=O)C(C)(C)CCCCCC", "Reading": "inactive"}
{"Compound": "O=C(CCCN1CCC(O)(c2ccc(Cl)cc2)CC1)c1ccc(F)cc1", "Reading": "inactive"}
{"Compound": "CCCCCCCCCCCC(=O)NCCCN(C)C", "Reading": "17.5 µM (active)"}
{"Compound": "Nc1ccn([C@@H]2O[C@H](CO)[C@@H](O)C2O)c(=O)n1 (stereo not given in full)", "Reading": "inactive"}

**Query** Which AC50 value belongs to `C=Cc1ccc(O)c(OC)c1` ?
**Result** inactive

**Query** Looking for the measured AC50 of `CC1=CC(=O)c2ccccc2C1=O` , can you help?
**Result** inactive

**Query** Fill in the blank: the reported AC50 of `Nc1cc(Cl)c(-c2cc(Cl)c(N)cc2Cl)cc1Cl` is ____.
**Result** inactive

**Query** # AC50 lookup, item CCCCCCCCC1CCC(=O)O1 (stereo not given)
**Result** inactive

**Query** Need AC50, item `C=CC(=O)OCCN(CC)CC`
**Result** inactive

**Query** # lookup: AC50 of `CC(C)(C)c1ccc(CCC=O)cc1`
**Result** 162 µM (active)

**Query** For the compound `CCc1cccc(CC)c1N(COC)C(=O)CS(=O)(=O)O` , what AC50 is on record?
**Result** inactive

**Query** Quick one: AC50 for COC(O)c1ccccc1 (stereo not given) ?
**Result** inactive

**Query** What value of AC50 has been reported for the following compound? `CCCCCCCC(OC)OC`
**Result** inactive

**Query** Fill in: AC50 of `COc1ccc(C#N)cc1` is ___
**Result** inactive

**Query** What measured AC50 goes with `Cc1cncc(C)c1` ?
**Result** inactive

**Query** // returns reported AC50 for input `CCCCCCOC(=O)c1ccc(O)cc1`
**Result** inactive

**Query** # AC50 lookup, item `C=CC(F)(F)C(F)(F)C(F)(F)C(F)(F)F`
**Result** inactive

**Query** Give the measured AC50 of `CCCCCCC(C)(C)C(=O)O` .
**Result** inactive

**Query** For the compound `FC(F)(F)C1(F)C(F)(F)C(F)(F)C(F)(F)C1(F)F` , what AC50 is on record?
**Result** inactive
